# reported pEC50; entries follow
# Test system: Trypanosoma brucei Lister 427 VSG221 with APOL1 G1 recombinant protein
# TEST_DETAILS: APOL1 G1 trypanosome cell rescue assay (Example B5)
# Type: cell-based
# TEST_PARAMETERS: Trypanosoma brucei, 20 h, read-out: APOL1 G1 Trypanosome Rescue EC50, Trypanosoma brucei Lister 427 VSG221 with APOL1 G1 recombinant protein, 20 hours, CellTiter-Glo; geometric mean of at least 2 assay runs; † = single assay run
pEC50: −log10 of the molar value.
METRIC_NAME: pEC50

In [3]: df
Out[3]:
                                   compound  reported
0  CNC(=O)C1(S(=O)(=O)c2ccc(OCCN3CCC4(CC3)C(=O)Nc3ccc(Cl)cc34)cc2)CC1 [Compound 226]      6.95
1  CS(=O)(=O)N1CCCc2cc(OCCN3CCC4(CC3)C(=O)Nc3ccc(Cl)cc34)ccc21 [Compound 53]      6.80
2  CN1CCc2cc(OCCN3CCC4(CC3)C(=O)Nc3ccc(C#N)cc34)ccc2S1(=O)=O [Compound 154]      6.24
3  C[C@]1(O)C[C@@H](N2C(=O)CCc3cc(OCCN4CCC5(CC4)C(=O)Nc4ccc(C(F)F)cc45)cnc32)C1 [Compound 274]      7.23
4  CC1(S(=O)(=O)c2ccc(OCCN3CCC4(CC3)C(=O)Nc3ccc(Cl)cc34)cn2)COC1 [Compound 158]      6.85
5  CS(=O)(=O)C1(c2ncc(OCCN3CCC4(CC3)C(=O)Nc3ccc(Cl)cc34)cn2)COC1 [Compound 276]      6.73
6  CC(c1c(F)cc(OCCN2CCC3(CC2)C(=O)Nc2ccc(Cl)cc23)cc1F)S(C)(=O)=O (single isomer, unassigned) [Compound 142]      7.01

###

# Tested on: HEK293 clonal cell line overexpressing APOL1 G1
# TEST_DETAILS: APOL1 G1 HEK293 cell rescue assay (Example B3)
# Type: cell-based
# TEST_PARAMETERS: Homo sapiens, HEK293, HEK293 clonal line overexpressing APOL1 G1; geometric mean of at least 2 runs; † = single run; ¥ = concentration at 50% rescue estimated (no sigmoidal curve)
METRIC_NAME: EC50 (nM)

>>> print(df.to_string())
                                    compound                             target_system  metric_name  reported
 0  O=C1Nc2ccc(Cl)cc2C12CCN(CCOc1ccc(S(=O)(=O)[C@H]3C[C@@H](O)C3)cc1)CC2 [Compound 17]  HEK293 clonal cell line overexpressing APOL1 G1         EC50       160
 1  CS(=O)(=O)C1CN(c2ncc(OCCN3CCC4(CC3)C(=O)Nc3ccc(Cl)cc34)cn2)C1 [Compound 302]  HEK293 clonal cell line overexpressing APOL1 G1         EC50       236
 2  CC1(O)CC(CN2C(=O)CCc3cc(OCCN4CCC5(CC4)C(=O)Nc4ccc(C(F)F)cc45)cnc32)C1 (centres unmarked) [Compound 320]  HEK293 clonal cell line overexpressing APOL1 G1         EC50      53.9
 3  CS(=O)(=O)c1ccc(OCCN2CCC3(CC2)C(=O)Nc2ccc(Cl)cc23)cc1F [Compound 63]  HEK293 clonal cell line overexpressing APOL1 G1         EC50       160
 4  CN1c2ccc(OCCN3CCC4(CC3)C(=O)Nc3ccc(C#N)cc34)cc2CCS1(=O)=O [Compound 104]  HEK293 clonal cell line overexpressing APOL1 G1         EC50       356
 5  CC(O)c1ncc(OCCN2CCC3(CC2)C(=O)Nc2ccc(Cl)cc23)cn1 (centres unmarked) [Compound 284]  HEK293 clonal cell line overexpressing APOL1 G1         EC50       775
 6  CC(COc1ccc(S(C)(=O)=O)cc1)N1CCC2(CC1)C(=O)N(C1CC(O)C1)c1ccc(Cl)cc12 (mixture of isomers) [Compound 205]  HEK293 clonal cell line overexpressing APOL1 G1         EC50      1760
 7  C[C@]1(O)C[C@@H](n2c(=O)[nH]c3cc(OCCN4CCC5(CC4)C(=O)Nc4ccc(Cl)cc45)cnc32)C1 [Compound 374]  HEK293 clonal cell line overexpressing APOL1 G1         EC50       216
 8  C[C@]1(O)C[C@@H](n2ncc3cc(OCCN4CCC5(CC4)C(=O)Nc4ccc(C#N)cc45)cnc32)C1 (single isomer, unassigned) [Compound 437]  HEK293 clonal cell line overexpressing APOL1 G1         EC50       186
 9  CS(=O)(=O)c1ccc(OCCN2CCC3(CC2)C(=O)Nc2ccc(Cl)cc23)cc1C(F)(F)F [Compound 108]  HEK293 clonal cell line overexpressing APOL1 G1         EC50      49.7
10  CN1C(=O)C2(CCN(CCOc3ccc4ncn(C)c(=O)c4c3)CC2)c2ccccc21 [Compound 29]  HEK293 clonal cell line overexpressing APOL1 G1         EC50      5560
11  CC[C@]1(O)C[C@H](N2C(=O)CCc3cc(OCCN4CCC5(CC4)C(=O)Nc4ccc(Cl)cc45)cnc32)C1 (single isomer, unassigned) [Compound 290]  HEK293 clonal cell line overexpressing APOL1 G1         EC50      63.9
12  N#Cc1ccc2c(c1)C1(CCN(CCOc3ccc(S(=O)(=O)C(F)F)cc3)CC1)C(=O)N2 [Compound 113]  HEK293 clonal cell line overexpressing APOL1 G1         EC50       176
13  Cn1c(=O)oc2cc(OCCN3CCC4(CC3)C(=O)Nc3ccc(Cl)cc34)ccc21 [Compound 131]  HEK293 clonal cell line overexpressing APOL1 G1         EC50       186
14  CS(=O)(=O)c1ccc(OCCN2CCC3(CC2)C(=O)Nc2ccc(C#N)cc23)cc1C(F)F [Compound 100]  HEK293 clonal cell line overexpressing APOL1 G1         EC50       134
15  O=C1Nc2ccc(Cl)cc2C12CCN(CCOc1ccc(C3CCCS3(=O)=O)cc1)CC2 (single isomer, unassigned) [Compound 176]  HEK293 clonal cell line overexpressing APOL1 G1         EC50       157
16  C[C@]1(O)C[C@@H](n2ccc3cc(OCCN4CCC5(CC4)C(=O)Nc4ccc(C(F)F)cc45)cnc32)C1 [Compound 350]  HEK293 clonal cell line overexpressing APOL1 G1         EC50      43.9
17  C[C@]1(O)C[C@@H](N2C(=O)CCc3cc(OCCN4CCC5(CC4)C(=O)Nc4ccc(OC(F)F)cc45)cnc32)C1 [Cmpd 325]  HEK293 clonal cell line overexpressing APOL1 G1         EC50       197
18  CN(c1c(F)cc(OCCN2CCC3(CC2)C(=O)Nc2ccc(C#N)cc23)cc1F)S(C)(=O)=O [Compound 128]  HEK293 clonal cell line overexpressing APOL1 G1         EC50       158
19  CC(C)N1C(=O)Cc2cc(OCCN3CCC4(CC3)C(=O)Nc3ccc(C#N)cc34)ccc21 [Compound 144]  HEK293 clonal cell line overexpressing APOL1 G1         EC50       246
20  C[C@]1(O)C[C@@H](N2C(=O)NCc3cc(OCCN4CCC5(CC4)C(=O)Nc4ccc(Cl)cc45)cnc32)C1 [Compound 356]  HEK293 clonal cell line overexpressing APOL1 G1         EC50       162
21  CN1C(=O)C2(CCN(CCOc3cc(F)c(C4(S(C)(=O)=O)COC4)c(F)c3)CC2)c2cc(C#N)ccc21 [Compound 189]  HEK293 clonal cell line overexpressing APOL1 G1         EC50       148
22  O=C1CCc2cc(OCCN3CCC4(CC3)C(=O)Nc3ccc(Cl)cc34)ccc2N1CC(F)F [Compound 106]  HEK293 clonal cell line overexpressing APOL1 G1         EC50       122
23  CN(C)c1ncc(OCCN2CCC3(CC2)C(=O)Nc2ccc(Cl)cc23)cn1 [Compound 303]  HEK293 clonal cell line overexpressing APOL1 G1         EC50       351
24  CS(=O)(=O)C1(c2ccc(OCCN3CCC4(CC3)C(=O)Nc3ccc(Cl)cc34)cc2C(F)(F)F)COC1 [Compound 165]  HEK293 clonal cell line overexpressing APOL1 G1         EC50        59
25  CC(=O)c1ncc(OCCN2CCC3(CC2)C(=O)Nc2ccc(Cl)cc23)cc1C(F)(F)F [Compound 294]  HEK293 clonal cell line overexpressing APOL1 G1         EC50      65.6
26  C[C@]1(O)C[C@@H](n2c(=O)ccc3cc(OCCN4CCC5(CC4)C(=O)Nc4ccc(C#N)cc45)cnc32)C1 [Compound 406]  HEK293 clonal cell line overexpressing APOL1 G1         EC50       109
27  O=C1Nc2ccc(Cl)cc2C12CCN(CCOc1ccc(S(=O)(=O)[C@H]3C[C@H](O)C3)cc1)CC2 [Compound 215]  HEK293 clonal cell line overexpressing APOL1 G1         EC50       122
28  O=C(NC1CCS(=O)(=O)C1)c1ccc(OCCN2CCC3(CC2)C(=O)Nc2ccc(Cl)cc23)cc1F (centres unmarked) [Compound 241]  HEK293 clonal cell line overexpressing APOL1 G1         EC50       217
